- TGT: CDK2/Cyclin E1 (Homo sapiens, UniProt P24941)
- METHOD NOTES: CDK2/Cyclin E1 Caliper LabChip EZ Reader mobility shift assay
- Type: biochemical
- Design: purchased Eurofins 14-475
- CONDITION DETAILS: read-out: Caliper Assay (CDK2/CCNE1): IC50
pIC50: −log10 of the molar value.
Field: pIC50. Provide a value for each of the compounds that follow.

COMPOUND	TGT	pIC50
CNC(=O)[C@@H](NC(=O)[C@H]1CN(C(=O)c2scnc2C(C)(C)C)CC12CN(C(=O)[C@H]1CC1(C)C)C2)[C@@H](C)OCC1CCCCC1 [I-231B]	CDK2/Cyclin E1 (Homo sapiens, UniProt P24941)	< 5.00
CNC(=O)[C@@H](NC(=O)[C@H]1CN(C(=O)C2CCNC2)CC12CN(C(=O)[C@H]1CC1(C)C)C2)[C@@H](C)OCc1ccccc1 (stereo partly drawn) [I-70B]	CDK2/Cyclin E1 (Homo sapiens, UniProt P24941)	< 5.00
CO[C@@H]1CC[C@H](NC(=O)[C@@H]2CN(C(=O)c3cnn(Cc4ccccc4)c3)CC23CN(C(=O)[C@H]2CC2(C)C)C3)C1 [I-248]	CDK2/Cyclin E1 (Homo sapiens, UniProt P24941)	< 5.00
CNC(=O)[C@H](CO)NC(=O)C1CN(C(=O)c2cnn(Cc3ccccc3)c2)CC12CN(C(=O)[C@H]1CC1(C)C)C2 (stereo partly drawn) [I-260]	CDK2/Cyclin E1 (Homo sapiens, UniProt P24941)	< 5.00
CC(C)(O)C(NC(=O)[C@@H]1CN(C(=O)c2cncs2)CC12CN(C(=O)C(C)(C)C1CC1)C2)c1cccc(C2CCOCC2)n1 (stereo partly drawn) [I-339]	CDK2/Cyclin E1 (Homo sapiens, UniProt P24941)	5.00 to 6.00

Please find the next compound below.
For CNC(=O)[C@@H](NC(=O)[C@@H]1CN(C(=O)c2cncs2)CC12CN(CC1COC1)C2)[C@@H](C)OCC12CCC(CC1)OC2 [I-348] , what is its reported pIC50?
5.00 to 6.00

---

- TGT: CDK2/Cyclin E1 (Homo sapiens)
- METHOD NOTES: CDK2/Cyclin E1 Caliper LabChip EZ Reader mobility shift assay
- Assay type: biochemical
- Design: purchased Eurofins 14-475
- CONDITION DETAILS: read-out: Caliper Assay (CDK2/CCNE1): IC50
pIC50: −log10 of the molar value.
METRIC NAME: pIC50

Look at each molecule and report its pIC50.
1. COC[C@H]1CCCN(C(=O)[C@@H](NC(=O)[C@@H]2CN(C(=O)c3cncs3)CC23CN(C(=O)[C@H]2CC2(C)C)C3)[C@@H](C)OC[C@H]2CC[C@H](OC(F)(F)F)CC2)C1 [I-435]
2. CNC(=O)[C@@H](NC(=O)[C@@H]1CN(C(=O)c2cnn(Cc3ccccc3)c2)CC12CN(C(=O)CC1(COC)CC1)C2)[C@@H](C)OCc1ccccc1 [I-82A]

≥ 8.00
< 5.00

Quick batch: pIC50 for everything below.
1. CC1(C)C[C@@H]1C(=O)N1CC2(CN(C(=O)c3cnn(Cc4ccccc4)c3)C[C@H]2C(=O)Nc2cccc(-c3ccccc3)c2)C1 [I-63A]
2. CC1(C)C[C@@H]1C(=O)N1CC2(CN(C(=O)c3cnn(Cc4ccccc4)c3)C[C@H]2C(=O)N2CCC(Cc3ccccc3)CC2)C1 [I-58A]
3. CNC(=O)[C@@H](NC(=O)[C@@H]1CN(C(=O)c2sc(Cl)nc2C)CC12CN(C(=O)[C@H]1CC1(C)C)C2)[C@@H](C)OCC1CCCCC1 [I-208A]
4. CNC(=O)[C@@H](NC(=O)[C@@H]1CN(C(=O)c2cnn(Cc3ccccc3)c2)CC12CN(C(=O)[C@H]1CC1(C)C)C2)[C@@H](C)OCc1ccccc1O [I-251]

1: 5.00 to 6.00; 2: 6.00 to 7.00; 3: 7.00 to 8.00; 4: 6.00 to 7.00

Sourced from patent US20240174680A1
